Target: UniProtKB Q00788
Sequence (Q00788 whole entry): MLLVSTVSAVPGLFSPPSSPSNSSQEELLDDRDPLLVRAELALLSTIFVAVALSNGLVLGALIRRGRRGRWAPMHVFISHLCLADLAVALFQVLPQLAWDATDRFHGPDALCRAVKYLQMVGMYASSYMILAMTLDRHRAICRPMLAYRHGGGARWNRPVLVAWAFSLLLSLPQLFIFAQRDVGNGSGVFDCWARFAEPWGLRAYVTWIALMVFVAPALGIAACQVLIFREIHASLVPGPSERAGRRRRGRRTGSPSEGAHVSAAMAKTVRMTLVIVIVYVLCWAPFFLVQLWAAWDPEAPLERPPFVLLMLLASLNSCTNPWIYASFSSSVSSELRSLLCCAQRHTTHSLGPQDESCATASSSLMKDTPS
Assay: Antidiuretic activity at V2 receptor
Assay type: tissue-based
Details: Urine

smiles | system | unit.symbol | ED
CCOc1ccc(C[C@@H]2NC(=O)CC3(CCCCC3)SSC[C@@H](C(=O)N3CCC[C@H]3C(=O)N[C@@H](CCCN=C(N)N)C(=O)NCC(N)=O)NC(=O)[C@H](CC(N)=O)NC(=O)[C@H](C(C)C)NC(=O)[C@H](Cc3ccccc3)NC2=O)cc1 | UniProtKB Q00788 | nM/kg | 1.9
CC(C)[C@@H]1NC(=O)[C@H](Cc2ccccc2)NC(=O)[C@@H](Cc2ccccc2)NC(=O)CC2(CCCCC2)SSC[C@H](C(=O)N2CCC[C@H]2C(=O)N[C@@H](CCCN=C(N)N)C(=O)NCC(N)=O)NC(=O)[C@H](CC(N)=O)NC1=O | UniProtKB Q00788 | nM/kg | 3.9
CC(C)[C@@H]1NC(=O)[C@@H](Cc2ccccc2)NC(=O)[C@@H](Cc2ccccc2)NC(=O)CC2(CCCCC2)SSC[C@@H](C(=O)N2CCC[C@H]2C(=O)N[C@@H](CCCN=C(N)N)C(=O)NCC(N)=O)NC(=O)[C@@H](CC(N)=O)NC1=O | UniProtKB Q00788 | nM/kg | 0.67
CCOc1ccc(C[C@H]2NC(=O)CC3(CCCCC3)SSC[C@@H](C(=O)N3CCC[C@H]3C(=O)N[C@@H](CCCN=C(N)N)C(=O)NCC(N)=O)NC(=O)[C@H](CC(N)=O)NC(=O)[C@H](C(C)C)NC(=O)[C@H](Cc3ccccc3)NC2=O)cc1 | UniProtKB Q00788 | nM/kg | 1.1

###

Target: Vasopressin V1a receptor (Rattus norvegicus)
Test: Anti-vasopressor activity at V1a receptor
Please enter 1 where ED is greater than or equal to 2 nM/kg, and -1 where it is lower.

smiles | classification
CC(C)[C@@H]1NC(=O)[C@@H](Cc2ccccc2)NC(=O)[C@@H](Cc2ccccc2)NC(=O)CC2(CCCCC2)SSC[C@@H](C(=O)N2CCC[C@H]2C(=O)N[C@@H](CCCN=C(N)N)C(=O)NCC(N)=O)NC(=O)[C@@H](CC(N)=O)NC1=O | -1
CC[C@H](C)[C@@H]1NC(=O)[C@H](Cc2ccc(OC)cc2)NC(=O)CC2(CCCCC2)SSC[C@@H](C(=O)N2CCC[C@H]2C(=O)N[C@@H](CCCN)C(=O)NCC(N)=O)NC(=O)[C@H](CC(N)=O)NC(=O)[C@H](CCC(N)=O)NC1=O | -1
CCOc1ccc(C[C@H]2NC(=O)CC3(CCCCC3)SSC[C@@H](C(=O)N3CCC[C@H]3C(=O)N[C@@H](CCCN=C(N)N)C(=O)NCC(N)=O)NC(=O)[C@H](CC(N)=O)NC(=O)[C@H](C(C)C)NC(=O)[C@H](Cc3ccccc3)NC2=O)cc1 | -1
CC[C@H](C)[C@@H]1NC(=O)[C@H](Cc2ccc(O)cc2)N(C)C(=O)CC2(CCCCC2)SSC[C@H](C(=O)N2CCC[C@H]2C(=O)N[C@@H](CCCN)C(=O)NCC(N)=O)NC(=O)[C@H](CC(N)=O)NC(=O)[C@H](CCC(N)=O)NC1=O | 1
CC[C@H](C)[C@@H]1NC(=O)[C@H](Cc2ccc(OC)cc2)NC(=O)CC2(CCCCC2)SSC[C@@H](C(=O)N2CCC[C@H]2C(=O)N[C@@H](CCCN)C(=O)O)NC(=O)[C@H](CC(N)=O)NC(=O)[C@H]([C@@H](C)O)NC1=O | 1
